Entry source: ChEMBL document CHEMBL5046230

experimentalDetails: Selectivity ratio of IC50 for antiproliferative activity against human HT-29 cells to IC50 for antiproliferative activity against human MCF7 cells
Assay type: functional
Consider the following compounds; for each one, report its Ratio IC50.
One number for each entry.

Worked cases, Ratio IC50 given:
COc1cc(OC)cc(OS(=O)(=O)c2ccc(N3CCN(CC(C)C)C3=O)cc2)c1	35
CC(C)N1CCN(c2ccc(S(=O)(=O)Oc3cccc(I)c3)cc2)C1=O	0.61
CCC(C)N1CCN(c2ccc(S(=O)(=O)Oc3ccc(F)c(F)c3)cc2)C1=O (configuration not stated)	1.1
COc1ccccc1OS(=O)(=O)c1ccc(N2CCN(CC(C)C)C2=O)cc1	0.34
CCC(C)N1CCN(c2ccc(S(=O)(=O)Oc3cccc(F)c3)cc2)C1=O (configuration not stated)	0.42
COc1cccc(OS(=O)(=O)c2ccc(N3CCN(CC(C)C)C3=O)cc2)c1	4.2
COc1cccc(OS(=O)(=O)c2ccc(N3CCN(C(C)C)C3=O)cc2)c1	1.1
CC(C)CN1CCN(c2ccc(S(=O)(=O)Oc3ccccc3)cc2)C1=O	0

Hi! Can you tell me Ratio IC50 for each of these compounds?
1. CCC(C)N1CCN(c2ccc(S(=O)(=O)Oc3cc(Br)c(OC)c(Br)c3)cc2)C1=O (configuration not stated)
2. COc1cc(OS(=O)(=O)c2ccc(N3CCN(CC(C)C)C3=O)cc2)cc(OC)c1OC
3. COc1ccc(OS(=O)(=O)c2ccc(N3CCN(CC(C)C)C3=O)cc2)cc1OC
4. CCC(C)N1CCN(c2ccc(S(=O)(=O)Oc3cc(Cl)cc(Cl)c3)cc2)C1=O (configuration not stated)
5. COc1c(Br)cc(OS(=O)(=O)c2ccc(N3CCN(CC(C)C)C3=O)cc2)cc1Br
6. COc1cc(OS(=O)(=O)c2ccc(N3CCN(C(C)C)C3=O)cc2)cc(OC)c1OC

Reply |
[0.53, 120, 1.1, 1.4, 46, 0.93]

Ask | What value of measured Ratio IC50 is listed for CCC(C)N1CCN(c2ccc(S(=O)(=O)Oc3ccc(OC)c(OC)c3)cc2)C1=O (configuration not stated) ?
Reply | 0.29
